Test: recombinant UMI read abundance after kanamycin selection (control-corrected) (log10(CPM+1)); higher = more efficient recombination; extreme values may be limits of the assay; sequences stand for … in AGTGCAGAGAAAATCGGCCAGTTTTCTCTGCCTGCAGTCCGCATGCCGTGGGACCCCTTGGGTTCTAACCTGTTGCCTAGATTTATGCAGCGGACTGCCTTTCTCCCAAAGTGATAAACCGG…AGGTTGGTTTCACT; site = the 11-nt donor;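 also: IS621 bridge recombinase in Escherichia coli cells against a fixed T5 target plasmid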
Measured Parameter: recombinant UMI read abundance (log10)

sequence_input="ATCTATGCATGGACCGGTTTTCCCGGTAATCCGTATTTGAC (site ATCTATCCTGT)" assay_value=0
sequence_input="CGATAGACATGGACCGGTTTTCCCGGTAATCCGTATTTGCC (site TGATAGACTGG)" assay_value=0
sequence_input="GAGCTCACATGGACCGGTTTTCCCGGTAATCCGTATTTGAT (site TAGCTCACTAT)" assay_value=1.66
sequence_input="GGAGTGGCATGGACCGGTTTTCCCGGTAATCCGTATTTGGT (site GGAATGGCTAC)" assay_value=0.749
sequence_input="GTCTGCACATGGACCGGTTTTCCCGGTAATCCGTATTTGTA (site GTCTGCACTTA)" assay_value=1.44
sequence_input="CACGGCCCATGGACCGGTTTTCCCGGTAATCCGTATTTGTT (site GACGGCCCTAA)" assay_value=0.0197
sequence_input="TGATACTCATGGACCGGTTTTCCCGGTAATCCGTATTTGCA (site TAATACTCTTG)" assay_value=2.38
sequence_input="CCAGGTGCATGGACCGGTTTTCCCGGTAATCCGTATTTGAA (site CCAGGTGCTAT)" assay_value=0.00736
sequence_input="ATCCAAGCATGGACCGGTTTTCCCGGTAATCCGTATTTGAG (site ATCCAATCTCT)" assay_value=0.773
sequence_input="CGGAACCCATGGACCGGTTTTCCCGGTAATCCGTATTTGTG (site CGGAATCCTAA)" assay_value=0
sequence_input="GTGGATGCATGGACCGGTTTTCCCGGTAATCCGTATTTGTG (site GTGGAGGCTCA)" assay_value=0.696
sequence_input="GTAGTCGCATGGACCGGTTTTCCCGGTAATCCGTATTTGGG (site GTAGTCGCTCT)" assay_value=0.661

----------
Assay: recombinant UMI read abundance after kanamycin selection (control-corrected) (log10(CPM+1)); higher = more efficient recombination; extreme values may be limits of the assay; sequences stand for … in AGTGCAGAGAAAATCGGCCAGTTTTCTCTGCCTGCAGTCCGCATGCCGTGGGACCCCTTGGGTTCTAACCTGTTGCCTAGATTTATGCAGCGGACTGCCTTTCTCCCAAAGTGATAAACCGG…AGGTTGGTTTCACT; site = the 11-nt donor
recombinant UMI read abundance (log10) listing for selected sequences.
Measured Parameter: recombinant UMI read abundance (log10)

sequence_input="TATCGTCCATGGACCGGTTTTCCCGGTAATCCGTATTTGCG (site TATCGTCCTCG)" measured_parameter="recombinant UMI read abundance (log10)" assay_value=0.0127
sequence_input="CAATTCCCATGGACCGGTTTTCCCGGTAATCCGTATTTGCT (site CAATGCCCTAG)" measured_parameter="recombinant UMI read abundance (log10)" assay_value=0
sequence_input="CAATCCTCATGGACCGGTTTTCCCGGTAATCCGTATTTGAA (site CAATACTCTTT)" measured_parameter="recombinant UMI read abundance (log10)" assay_value=1.33
